This collection of values is drawn from patent US20260053811A1.

Test: Pharmacokinetics (plasma Cmax, AUC, Tmax, t1/2, trough concentrations)
Format: in vivo, human
Settings: human, plasma, oral, 25 mg, Day 56; 25 mg BID; read-out: Trough Plasma Concentration, Mean (SD)
Assay Readout: concentration at 56 day
Express your answer as a number followed by its unit.

Dear colleague, I am looking for the recorded concentration at 56 day of the following molecule: CC(=O)N[C@H]1CC[C@H](NC(=O)CN2CCN(c3nncc(-c4ccc(C)cc4)n3)CC2)CC1
104 ng/mL

###

Assay: Pharmacokinetics (plasma Cmax, AUC, Tmax, t1/2, trough concentrations)
Format: in vivo, human
Conditions: human, plasma, oral, 12.5 mg, steady state Day 28; 12.5 mg QD; read-out: AUC0-24, Mean (SD)
Assay Readout: AUC(0-t) (ng·h/mL)
Only the number, expressed in ng·h/mL, is required.

Dear colleague, I am looking for the recorded AUC(0-t) of the following compound: CC(=O)N[C@H]1CC[C@H](NC(=O)CN2CCN(c3nncc(-c4ccc(C)cc4)n3)CC2)CC1 [Compound A HBr]
1020

###

Assay: Pharmacokinetics (plasma Cmax, AUC, Tmax, t1/2, trough concentrations)
Type: in vivo, human
Conditions: human, plasma, oral, 12.5 mg, Day 28; 12.5 mg QD; read-out: Trough Plasma Concentration, Mean (SD)
Assay Readout: concentration at 28 day (ng/mL)
Only the number, expressed in ng/mL, is required.

Dear colleague, I am looking for the recorded concentration at 28 day of the following molecule: CC(=O)N[C@H]1CC[C@H](NC(=O)CN2CCN(c3nncc(-c4ccc(C)cc4)n3)CC2)CC1 [Compound A HBr]
7.91

###

Assay: Pharmacokinetics (plasma Cmax, AUC, Tmax, t1/2, trough concentrations)
Type: in vivo, human
Details: human, plasma, oral, 100 mg, steady state Day 28; 100 mg QD Part 1; read-out: AUC0-24, Mean (SD)
Assay Readout: AUC(0-t) (ng·h/mL)
Only the number, expressed in ng·h/mL, is required.

Dear colleague, I am looking for the recorded AUC(0-t) of the following compound: CC(=O)N[C@H]1CC[C@H](NC(=O)CN2CCN(c3nncc(-c4ccc(C)cc4)n3)CC2)CC1
14900

###

Assay: Pharmacokinetics (plasma Cmax, AUC, Tmax, t1/2, trough concentrations)
Assay type: in vivo, human
Conditions: human, plasma, oral, 12.5 mg, Day 56; 12.5 mg BID; read-out: Trough Plasma Concentration, Mean (SD)
Assay Readout: concentration at 56 day (ng/mL)
Only the number, expressed in ng/mL, is required.

Dear colleague, I am looking for the recorded concentration at 56 day of the following molecule: CC(=O)N[C@H]1CC[C@H](NC(=O)CN2CCN(c3nncc(-c4ccc(C)cc4)n3)CC2)CC1
40.4

###

Assay: Pharmacokinetics (plasma Cmax, AUC, Tmax, t1/2, trough concentrations)
Assay type: in vivo, human
Conditions: human, plasma, oral, 100 mg, 100 mg QD; Cohort 2; Day 28; read-out: Steady-state AUC0-24
Assay Readout: AUC(0-t) (ng·h/mL)
Only the number, expressed in ng·h/mL, is required.

Dear colleague, I am looking for the recorded AUC(0-t) of the following compound: CC(=O)N[C@H]1CC[C@H](NC(=O)CN2CCN(c3nncc(-c4ccc(C)cc4)n3)CC2)CC1 [Compound A HBr]
7480
